EC50 for assorted binders
Target: T1, recombinant human soluble gpNMB (recombinant human gpNMB-FLAG-His) (human, UniProt Q14956 23-498)
T1 sequence: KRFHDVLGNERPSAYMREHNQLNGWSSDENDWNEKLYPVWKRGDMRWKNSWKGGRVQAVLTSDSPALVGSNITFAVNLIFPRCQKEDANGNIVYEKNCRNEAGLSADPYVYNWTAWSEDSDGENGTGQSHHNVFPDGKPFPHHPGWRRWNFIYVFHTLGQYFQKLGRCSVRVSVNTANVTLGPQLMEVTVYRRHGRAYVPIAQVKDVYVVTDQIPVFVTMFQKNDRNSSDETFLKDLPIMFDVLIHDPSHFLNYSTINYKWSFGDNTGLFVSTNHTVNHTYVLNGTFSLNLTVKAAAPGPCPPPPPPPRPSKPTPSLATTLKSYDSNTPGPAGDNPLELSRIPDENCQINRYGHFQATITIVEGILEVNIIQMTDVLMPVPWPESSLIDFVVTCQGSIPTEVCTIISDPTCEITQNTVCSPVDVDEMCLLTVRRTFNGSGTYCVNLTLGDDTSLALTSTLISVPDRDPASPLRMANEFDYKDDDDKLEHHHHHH
Test: antigen ELISA
Please respond with the number in nM and leave the unit unwritten.

What does the record list as EC50 for hGPN18-2_H2L3 VH Y112A (antibody, V domains shown) VH: QVQLVQSGPGLVQPTQTLTLTCSFSGFSLSTSVMGVGWIRQPSGKGLEWLADIWWDDDKDYNPSLKSRLTISKDTSKNQVVLTMTNMDTVDTATYYCARTYYSNYEYYGMDAWGQGTLVTVSS VL: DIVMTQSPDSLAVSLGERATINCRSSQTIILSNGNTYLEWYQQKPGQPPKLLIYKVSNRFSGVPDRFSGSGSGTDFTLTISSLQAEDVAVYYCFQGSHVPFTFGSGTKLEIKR ?
3.73

What does the record list as EC50 for hGPN18-2_H2L3 VH S64A (antibody, V domains shown) VH: QVQLVQSGPGLVQPTQTLTLTCSFSGFSLSTSVMGVGWIRQPSGKGLEWLADIWWDDDKDYNPALKSRLTISKDTSKNQVVLTMTNMDTVDTATYYCARTYYSNYEYYGMDYWGQGTLVTVSS VL: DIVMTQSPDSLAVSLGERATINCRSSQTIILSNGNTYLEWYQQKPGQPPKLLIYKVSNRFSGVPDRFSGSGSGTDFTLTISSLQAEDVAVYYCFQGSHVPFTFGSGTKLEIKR ?
3.59

What does the record list as EC50 for hGPN18-2_H2L3 VH P63A (antibody, V domains shown) VH: QVQLVQSGPGLVQPTQTLTLTCSFSGFSLSTSVMGVGWIRQPSGKGLEWLADIWWDDDKDYNASLKSRLTISKDTSKNQVVLTMTNMDTVDTATYYCARTYYSNYEYYGMDYWGQGTLVTVSS VL: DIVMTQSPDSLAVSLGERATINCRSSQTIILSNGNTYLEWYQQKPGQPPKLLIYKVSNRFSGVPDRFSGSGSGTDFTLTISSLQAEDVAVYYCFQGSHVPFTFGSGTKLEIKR ?
12

What does the record list as EC50 for hGPN18-2_H2L3 VH E106A (antibody, V domains shown) VH: QVQLVQSGPGLVQPTQTLTLTCSFSGFSLSTSVMGVGWIRQPSGKGLEWLADIWWDDDKDYNPSLKSRLTISKDTSKNQVVLTMTNMDTVDTATYYCARTYYSNYAYYGMDYWGQGTLVTVSS VL: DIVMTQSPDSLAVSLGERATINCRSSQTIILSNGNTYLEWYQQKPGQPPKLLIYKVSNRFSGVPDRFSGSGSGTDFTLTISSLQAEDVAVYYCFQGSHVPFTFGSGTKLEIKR ?
10.8

What does the record list as EC50 for hGPN18-2_H2L3 VH Y105A (antibody, V domains shown) VH: QVQLVQSGPGLVQPTQTLTLTCSFSGFSLSTSVMGVGWIRQPSGKGLEWLADIWWDDDKDYNPSLKSRLTISKDTSKNQVVLTMTNMDTVDTATYYCARTYYSNAEYYGMDYWGQGTLVTVSS VL: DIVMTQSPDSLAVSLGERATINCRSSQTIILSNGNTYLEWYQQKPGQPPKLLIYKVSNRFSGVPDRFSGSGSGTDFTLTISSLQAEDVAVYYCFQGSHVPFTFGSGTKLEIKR ?
15.6
